Assay Name: Biodistribution in BALB/c mice
Assay type: in vivo
Condition Context: female, BALB/c, mouse, liver, iv, 30 MBq, total radioactivity; 10 min p.i.; read-out: uptake in liver
Where a SMILES comes first, the peptide text is derived from it. [ ]: non-standard residue; d: D form. The star is where a group is joined. DOTA = O=C(O)CN1CCN(CC(=O)O)CCN(CC(=O)*)CCN(CC(=O)O)CC1; 1Nal = N[C@@H](Cc1cccc2ccccc12)C(=O)O; NMeNle = CCCC[C@H](NC)C(=O)O
Quantity: tissue uptake at 10 min (%ID/g)
Reply numerically in %ID/g, unit not repeated.

Tell me its tissue uptake at 10 min given CCCC[C@@H](C(=O)N[C@@H](CC(=O)O)C(=O)N[C@@H](Cc1cccc2ccccc12)C(N)=O)N(C)C(=O)[C@H](Cc1c[nH]c2ccccc12)NC(=O)CNC(=O)[C@H](Cc1ccc(O)cc1)NC(=O)[C@@H]1CCCN1C(=O)[C@@H](CCC(=O)O)NC(=O)CN1CCN(CC(=O)O)CCN(CC(=O)O)CCN(CC(=O)O)CC1 [[^177Lu]Lu-1, metal not drawn] ({DOTA}-[dE]PYGW[NMeNle]D[1Nal]-NH2) as the entry.
5.37

* * *

Assay Name: Metabolic stability in vivo and radiometabolites (radio-HPLC of blood, urine, liver, kidney)
Design: species or system BALB/c mice
Condition Context: liver, 60 min p.i.
Where a SMILES comes first, the peptide text is derived from it. [ ]: non-standard residue; d: D form. The star is where a group is joined. DOTA = O=C(O)CN1CCN(CC(=O)O)CCN(CC(=O)*)CCN(CC(=O)O)CC1; 1Nal = N[C@@H](Cc1cccc2ccccc12)C(=O)O; NMeNle = CCCC[C@H](NC)C(=O)O
Quantity: percentage of intact radiopeptide / radiometabolite (%)
Reply numerically in %, unit not repeated.

Consider the worked cases shown below.
CCCC[C@@H](C(=O)N[C@@H](CC(=O)O)C(=O)N[C@@H](Cc1cccc2ccccc12)C(=O)O)N(C)C(=O)[C@H](Cc1c[nH]c2ccccc12)NC(=O)CNC(=O)[C@H](Cc1ccc(O)cc1)NC(=O)[C@@H]1CCCN1C(=O)[C@@H](CCC(=O)O)NC(=O)CN1CCN(CC(=O)O)CCN(CC(=O)O)CCN(CC(=O)O)CC1 [[^177Lu]Lu-M1, metal not drawn] ({DOTA}-[dE]PYGW[NMeNle]D[1Nal]-OH) ... 4.6
CCCC[C@@H](C(=O)N[C@@H](CC(=O)O)C(=O)N[C@@H](Cc1cccc2ccccc12)C(N)=O)N(C)C(=O)[C@H](Cc1c[nH]c2ccccc12)NC(=O)CNC(=O)[C@H](Cc1ccc(O)cc1)NC(=O)[C@@H]1CCCN1C(=O)[C@@H](CCC(=O)O)NC(=O)CN1CCN(CC(=O)O)CCN(CC(=O)O)CCN(CC(=O)O)CC1 [[^177Lu]Lu-1, metal not drawn] ({DOTA}-[dE]PYGW[NMeNle]D[1Nal]-NH2) ... 47.7

Tell me its percentage of intact radiopeptide / radiometabolite given CCCC[C@@H](C(=O)O)N(C)C(=O)[C@H](Cc1c[nH]c2ccccc12)NC(=O)CNC(=O)[C@H](Cc1ccc(O)cc1)NC(=O)[C@@H]1CCCN1C(=O)[C@@H](CCC(=O)O)NC(=O)CN1CCN(CC(=O)O)CCN(CC(=O)O)CCN(CC(=O)O)CC1 [[^177Lu]Lu-M3, metal not drawn] ({DOTA}-[dE]PYGW[NMeNle]-OH; C-terminus assumed) as the entry.
5.6

Tell me its percentage of intact radiopeptide / radiometabolite given CCCC[C@@H](C(=O)N[C@@H](CC(=O)O)C(=O)O)N(C)C(=O)[C@H](Cc1c[nH]c2ccccc12)NC(=O)CNC(=O)[C@H](Cc1ccc(O)cc1)NC(=O)[C@@H]1CCCN1C(=O)[C@@H](CCC(=O)O)NC(=O)CN1CCN(CC(=O)O)CCN(CC(=O)O)CCN(CC(=O)O)CC1 [[^177Lu]Lu-M2, metal not drawn] ({DOTA}-[dE]PYGW[NMeNle]D-OH; C-terminus assumed) as the entry.
6.9

* * *

Assay Name: Biodistribution in BALB/c mice
Format: in vivo
Condition Context: female, BALB/c, mouse, blood, iv, 30 MBq, total radioactivity; 30 min p.i.; read-out: uptake in blood
Protocol: Metabolic biodistribution studies were performed in accordance with the ethical standards of the institution and approved by the Austrian Ministry of Science (BMWFW-66.011/0072-V/3b/2019). […] Urine was measured with the low-sensitivity loop of the radiodetector. The remaining samples were analyzed with the high-sensitivity loop due to the lower radioactivity present in blood, liver and kidney homogenate. […]
Where a SMILES comes first, the peptide text is derived from it. [ ]: non-standard residue; d: D form. The star is where a group is joined. DOTA = O=C(O)CN1CCN(CC(=O)O)CCN(CC(=O)*)CCN(CC(=O)O)CC1; 1Nal = N[C@@H](Cc1cccc2ccccc12)C(=O)O; NMeNle = CCCC[C@H](NC)C(=O)O
Quantity: tissue uptake at 0.5 h (%ID/g)
Reply numerically in %ID/g, unit not repeated.

Tell me its tissue uptake at 0.5 h given CCCC[C@@H](C(=O)N[C@@H](CC(=O)O)C(=O)N[C@@H](Cc1cccc2ccccc12)C(N)=O)N(C)C(=O)[C@H](Cc1c[nH]c2ccccc12)NC(=O)CNC(=O)[C@H](Cc1ccc(O)cc1)NC(=O)[C@@H]1CCCN1C(=O)[C@@H](CCC(=O)O)NC(=O)CN1CCN(CC(=O)O)CCN(CC(=O)O)CCN(CC(=O)O)CC1 [[^177Lu]Lu-1, metal not drawn] ({DOTA}-[dE]PYGW[NMeNle]D[1Nal]-NH2) as the entry.
5.08

* * *

Assay Name: Biodistribution in BALB/c mice
Type: in vivo
Condition Context: female, BALB/c, mouse, stomach, iv, 30 MBq, total radioactivity; 30 min p.i.; read-out: uptake in stomach
Where a SMILES comes first, the peptide text is derived from it. [ ]: non-standard residue; d: D form. The star is where a group is joined. DOTA = O=C(O)CN1CCN(CC(=O)O)CCN(CC(=O)*)CCN(CC(=O)O)CC1; 1Nal = N[C@@H](Cc1cccc2ccccc12)C(=O)O; NMeNle = CCCC[C@H](NC)C(=O)O
Quantity: tissue uptake at 0.5 h (%ID/g)
Reply numerically in %ID/g, unit not repeated.

Tell me its tissue uptake at 0.5 h given CCCC[C@@H](C(=O)N[C@@H](CC(=O)O)C(=O)N[C@@H](Cc1cccc2ccccc12)C(N)=O)N(C)C(=O)[C@H](Cc1c[nH]c2ccccc12)NC(=O)CNC(=O)[C@H](Cc1ccc(O)cc1)NC(=O)[C@@H]1CCCN1C(=O)[C@@H](CCC(=O)O)NC(=O)CN1CCN(CC(=O)O)CCN(CC(=O)O)CCN(CC(=O)O)CC1 [[^177Lu]Lu-1, metal not drawn] ({DOTA}-[dE]PYGW[NMeNle]D[1Nal]-NH2) as the entry.
2.29

* * *

Assay Name: Metabolic stability in vivo and radiometabolites (radio-HPLC of blood, urine, liver, kidney)
Set-up: species or system BALB/c mice
Condition Context: blood, 30 min p.i., mice injected i.v. with [177Lu]Lu-1
Where a SMILES comes first, the peptide text is derived from it. [ ]: non-standard residue; d: D form. The star is where a group is joined. DOTA = O=C(O)CN1CCN(CC(=O)O)CCN(CC(=O)*)CCN(CC(=O)O)CC1; 1Nal = N[C@@H](Cc1cccc2ccccc12)C(=O)O; NMeNle = CCCC[C@H](NC)C(=O)O
Quantity: percentage of intact radiopeptide / radiometabolite (%)
Reply numerically in %, unit not repeated.

Consider the worked cases shown below.
CCCC[C@@H](C(=O)N[C@@H](CC(=O)O)C(=O)N[C@@H](Cc1cccc2ccccc12)C(=O)O)N(C)C(=O)[C@H](Cc1c[nH]c2ccccc12)NC(=O)CNC(=O)[C@H](Cc1ccc(O)cc1)NC(=O)[C@@H]1CCCN1C(=O)[C@@H](CCC(=O)O)NC(=O)CN1CCN(CC(=O)O)CCN(CC(=O)O)CCN(CC(=O)O)CC1 [[^177Lu]Lu-M1, metal not drawn] ({DOTA}-[dE]PYGW[NMeNle]D[1Nal]-OH) ... 9.9
CCCC[C@@H](C(=O)O)N(C)C(=O)[C@H](Cc1c[nH]c2ccccc12)NC(=O)CNC(=O)[C@H](Cc1ccc(O)cc1)NC(=O)[C@@H]1CCCN1C(=O)[C@@H](CCC(=O)O)NC(=O)CN1CCN(CC(=O)O)CCN(CC(=O)O)CCN(CC(=O)O)CC1 [[^177Lu]Lu-M3, metal not drawn] ({DOTA}-[dE]PYGW[NMeNle]-OH; C-terminus assumed) ... 17.0
CCCC[C@@H](C(=O)N[C@@H](CC(=O)O)C(=O)O)N(C)C(=O)[C@H](Cc1c[nH]c2ccccc12)NC(=O)CNC(=O)[C@H](Cc1ccc(O)cc1)NC(=O)[C@@H]1CCCN1C(=O)[C@@H](CCC(=O)O)NC(=O)CN1CCN(CC(=O)O)CCN(CC(=O)O)CCN(CC(=O)O)CC1 [[^177Lu]Lu-M2, metal not drawn] ({DOTA}-[dE]PYGW[NMeNle]D-OH; C-terminus assumed) ... 3.8

Consider the additional compound presented here.
Tell me its percentage of intact radiopeptide / radiometabolite given CCCC[C@@H](C(=O)N[C@@H](CC(=O)O)C(=O)N[C@@H](Cc1cccc2ccccc12)C(N)=O)N(C)C(=O)[C@H](Cc1c[nH]c2ccccc12)NC(=O)CNC(=O)[C@H](Cc1ccc(O)cc1)NC(=O)[C@@H]1CCCN1C(=O)[C@@H](CCC(=O)O)NC(=O)CN1CCN(CC(=O)O)CCN(CC(=O)O)CCN(CC(=O)O)CC1 [[^177Lu]Lu-1, metal not drawn] ({DOTA}-[dE]PYGW[NMeNle]D[1Nal]-NH2) as the entry.
64.1

Entry source: paper PMC7583830
